Test system: 743489-274-T-PDC complex spheroid viability
Assay text: Anticancer human tumor 743489-274-T-PDC patient-derived renal cell carcinoma cell line growth inhibition
Study conditions: second compound 10 µM; first compound 0.0316 µM; stronger effect = lower value
Excerpt: Multicellular complex tumor spheroid response to LSD1 Inhibitor Iadademstat in combination with a variety of drugs and investigational agents in selected tumor cell lines The current study was undertaken to assess response to LSD1 inhibitors in combination with standard-of-care drugs and investigational agents in solid tumor complex spheroid models as well as in the K-562 leukemia. […] Compounds. […] If the clinical Cmax for an agent had not been determined, the highest concentration tested was 10 microM. […]

Molecule | viability, T/C [%]
Cn1ncnc1C1c2n[nH]c(=O)c3cc(F)cc(c23)NC1c1ccc(F)cc1 (stereo not drawn) + NC1CCC(NC2CC2c2ccccc2)CC1 | 90.4
CC1(C)CCC(CN2CCN(c3ccc(C(=O)NS(=O)(=O)c4ccc(NCC5CCOCC5)c([N+](=O)[O-])c4)c(Oc4cnc5[nH]ccc5c4)c3)CC2)=C(c2ccc(Cl)cc2)C1 + NC1CCC(NC2CC2c2ccccc2)CC1 | 128
CC(C)CC(NC(=O)CNC(=O)c1cc(Cl)ccc1Cl)B1OC(=O)CC(CC(=O)O)(C(=O)O)O1 (stereo not drawn) + NC1CCC(NC2CC2c2ccccc2)CC1 | 76.6

====

# reported viability, T/C; entries follow
Test system: 743489-274-T-PDC complex spheroid viability
Assay text: Anticancer human tumor 743489-274-T-PDC cell line growth inhibition;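 further: spheroids exposed to compounds for 7 days before readout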;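 on viability, T/C: 100% = DMSO vehicle control wells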
Study conditions: second compound 1 µM; first compound 0.316 µM; stronger effect = lower value

Molecule | viability, T/C, %
COc1cc(Nc2ncc3c(n2)-c2ccc(Cl)cc2C(c2c(F)cccc2OC)=NC3)ccc1C(=O)O + NC1CC1c1ccc(-c2cccc(O)c2)cc1 | 74
O=C(C=Cn1cnc(-c2cc(C(F)(F)F)cc(C(F)(F)F)c2)n1)NNc1cnccn1 + NC1CCC(NC2CC2c2ccccc2)CC1 | 91.6
COc1cc(Nc2ncc3c(n2)-c2ccc(Cl)cc2C(c2c(F)cccc2OC)=NC3)ccc1C(=O)O + NC1CCC(NC2CC2c2ccccc2)CC1 | 92.5
Nc1ncn(C2CC(O)C(CO)O2)c(=O)n1 (stereo unspecified) + NC1CCC(NC2CC2c2ccccc2)CC1 | 105
CC1COCCN1c1cc(-c2ccnn2C)c2ccnc(-c3ccn[nH]3)c2n1 (stereo unspecified) + NC1CC1c1ccc(-c2cccc(O)c2)cc1 | 64.7
Nc1ncn(C2CC(O)C(CO)O2)c(=O)n1 (stereo unspecified) + NC1CC1c1ccc(-c2cccc(O)c2)cc1 | 90

====

Tested on: 743489-274-T-PDC complex spheroid viability
Assay text: Anticancer human tumor 743489-274-T-PDC cell line growth inhibition;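 further: spheroids exposed to compounds for 7 days before readout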
Study conditions: curve of first compound; second compound 3.16 µM

Compound | IC50
CCc1c2c(nc3ccc(O)cc13)-c1cc3c(c(=O)n1C2)COC(=O)[C@]3(O)CC + NC1CC1c1ccc(-c2cccc(O)c2)cc1 | 0.00226 µM
NS(=O)(=O)OCC1CC(n2ccc3c(NC4CCc5ccccc54)ncnc32)CC1O (stereo not drawn) + NC1CC1c1ccc(-c2cccc(O)c2)cc1 | > 3 µM
CC(C)CC(NC(=O)CNC(=O)c1cc(Cl)ccc1Cl)B1OC(=O)CC(CC(=O)O)(C(=O)O)O1 (stereo not drawn) + NC1CCC(NC2CC2c2ccccc2)CC1 | > 0.1 µM
Nc1ccccc1NC(=O)c1ccc(CNC(=O)OCc2cccnc2)cc1 + NC1CC1c1ccc(-c2cccc(O)c2)cc1 | 1.01 µM
CC1(C)CCC(CN2CCN(c3ccc(C(=O)NS(=O)(=O)c4ccc(NCC5CCOCC5)c([N+](=O)[O-])c4)c(Oc4cnc5[nH]ccc5c4)c3)CC2)=C(c2ccc(Cl)cc2)C1 + NC1CCC(NC2CC2c2ccccc2)CC1 | > 10 µM
Cn1ncnc1C1c2n[nH]c(=O)c3cc(F)cc(c23)NC1c1ccc(F)cc1 (stereo not drawn) + NC1CC1c1ccc(-c2cccc(O)c2)cc1 | > 0.1 µM
COc1cc(Nc2ncc3c(n2)-c2ccc(Cl)cc2C(c2c(F)cccc2OC)=NC3)ccc1C(=O)O + NC1CCC(NC2CC2c2ccccc2)CC1 | > 1 µM
CC(C)c1c(-c2ccccc2)nc2c(C#N)c[nH]n2c1=O + NC1CC1c1ccc(-c2cccc(O)c2)cc1 | > 10 µM

====

Tested on: 743489-274-T-PDC complex spheroid viability
Assay text: Anticancer human tumor 743489-274-T-PDC cell line growth inhibition;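 further: spheroids exposed to compounds for 7 days before readout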;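 on viability, T/C: 100% = DMSO vehicle control wells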
Study conditions: second compound 10 µM; first compound 1 µM; stronger effect = lower value

Compound | Target system | Unit descriptor | viability, T/C
CC1(C)CCC(CN2CCN(c3ccc(C(=O)NS(=O)(=O)c4ccc(NCC5CCOCC5)c([N+](=O)[O-])c4)c(Oc4cnc5[nH]ccc5c4)c3)CC2)=C(c2ccc(Cl)cc2)C1 + NC1CCC(NC2CC2c2ccccc2)CC1 | 743489-274-T-PDC complex spheroid viability | % | 122
CC(C)c1c(-c2ccccc2)nc2c(C#N)c[nH]n2c1=O + NC1CC1c1ccc(-c2cccc(O)c2)cc1 | 743489-274-T-PDC complex spheroid viability | % | 102
CC1COCCN1c1cc(C2(S(C)(=N)=O)CC2)nc(-c2ccnc3[nH]ccc23)n1 (stereo not drawn) + NC1CC1c1ccc(-c2cccc(O)c2)cc1 | 743489-274-T-PDC complex spheroid viability | % | 110

====

Tested on: 743489-274-T-PDC complex spheroid viability
Assay text: Anticancer human tumor 743489-274-T-PDC cell line growth inhibition;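 further: spheroids exposed to compounds for 7 days before readout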
Study conditions: curve of first compound; second compound 3.16 µM
# reported IC50; entries follow

Compound | IC50
Nc1ncn(C2CC(O)C(CO)O2)c(=O)n1 (stereo not drawn) + NC1CCC(NC2CC2c2ccccc2)CC1 | > 1000 nM
Nc1ncn(C2CC(O)C(CO)S2)c(=O)n1 (stereo not drawn) + NC1CCC(NC2CC2c2ccccc2)CC1 | > 300 nM
CC1COCCN1c1cc(-c2ccnn2C)c2ccnc(-c3ccn[nH]3)c2n1 (stereo not drawn) + NC1CC1c1ccc(-c2cccc(O)c2)cc1 | 540 nM

====

# reported IC50; entries follow
Tested on: 743489-274-T-PDC complex spheroid viability
Assay text: Anticancer human tumor 743489-274-T-PDC cell line growth inhibition;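 further: spheroids exposed to compounds for 7 days before readout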
Study conditions: curve of first compound; second compound 3.16 µM
Reported property: IC50

Molecule | Result
CCN(c1cc(-c2ccc(CN3CCOCC3)cc2)cc(C(=O)NCc2c(C)cc(C)[nH]c2=O)c1C)C1CCOCC1 + NC1CC1c1ccc(-c2cccc(O)c2)cc1 | > 3 µM
NS(=O)(=O)OCC1CC(n2ccc3c(NC4CCc5ccccc54)ncnc32)CC1O (stereo not drawn) + NC1CCC(NC2CC2c2ccccc2)CC1 | > 3 µM
Nc1ncn(C2CC(O)C(CO)S2)c(=O)n1 (stereo not drawn) + NC1CC1c1ccc(-c2cccc(O)c2)cc1 | > 0.3 µM
